- Tested on: ^3 H-Norepinephrine release, rat hippocampus slices
- run-description: Ligand-stimulated ^3 H-norepinephrine release from rat hippocampus slices
- Type: cell-based
- condition: in vitro slices, 300 μM
readout-label: percent fractional release, ^3 H-Norepinephrine, Hippocampus (%)
Write the number in % without appending the unit.

Recorded results for 3 molecules are shown here.
# molecule, reported-measurement
data = [
    ("CN1CCCC1c1cccnc1 (stereo not shown) [Nicotine, nicotine, reference compound]", 6.19),
    ("CN1CCCC1c1cncc(-c2ccc(O)cc2)c1.O=C(O)/C=C/C(=O)O (stereo not shown) [R^5 = 4-hydroxyphenyl]", 3.03),
    ("COc1ccc(-c2cncc(C3CCCN3C)c2)cc1.O=C(O)/C=C/C(=O)O (stereo not shown)", 0.99),
]

--- query ---
[Q] Given the molecule Cc1ccc(-c2cncc(C3CCCN3C)c2)cc1.O=C(O)/C=C/C(=O)O (stereo not shown) , what is its reported percent fractional release, ^3 H-Norepinephrine, Hippocampus?
[A] 0.52

* * *

pIC50 reference
- system-name: muscarinic acetylcholine receptors
- run-description: ^3 H-QNB (quinuclidinyl benzilate) binding/displacement, rat cerebral membranes
- condition: ^3 H-QNB 60 pM, rat cerebral membranes
Lab note — pIC50 values are minus log10 of concentrations in M.

The cases that follow already have their pIC50 on record.
# compound, system-name, pIC50
measured = [
    ("COc1ccc(-c2cncc(C3CCCN3C)c2)cc1.O=C(O)/C=C/C(=O)O (stereo not drawn) [R^5 = 4-methyoxyphenyl, fumarate]", "muscarinic acetylcholine receptors", 4.42),
    ("Fc1ccc(-c2cncc(C3CCCCN3)c2)cc1 (stereo not drawn) [fumarate]", "muscarinic acetylcholine receptors", 4.60),
    ("C#Cc1cncc(C2CCCN2)c1 (stereo not drawn)", "muscarinic acetylcholine receptors", 5.05),
]

[Q] So what's the measured pIC50 for this one? CN1CCCC1c1cncc(-c2ccc(O)c(F)c2)c1.O=C(O)/C=C/C(=O)O (stereo not drawn) [R^5 = 3-fluoro-4-hydroxyphenyl, fumarate]
[A] 4.46

[Q] So what's the measured pIC50 for this one? CN(C)CC#Cc1cncc(C2CCCN2C)c1 (stereo not drawn)
[A] 4.00

* * *

- system-name: nicotinic acetylcholine receptor (Rattus norvegicus, UniProt P09483+P12390)
- Construct: the brains removed and the cerebral cortex dissected on ice; from tissue; host or cells: cerebral cortex synaptic membranes of male Sprague-Dawley rats
- Sequence (P09483 31-630): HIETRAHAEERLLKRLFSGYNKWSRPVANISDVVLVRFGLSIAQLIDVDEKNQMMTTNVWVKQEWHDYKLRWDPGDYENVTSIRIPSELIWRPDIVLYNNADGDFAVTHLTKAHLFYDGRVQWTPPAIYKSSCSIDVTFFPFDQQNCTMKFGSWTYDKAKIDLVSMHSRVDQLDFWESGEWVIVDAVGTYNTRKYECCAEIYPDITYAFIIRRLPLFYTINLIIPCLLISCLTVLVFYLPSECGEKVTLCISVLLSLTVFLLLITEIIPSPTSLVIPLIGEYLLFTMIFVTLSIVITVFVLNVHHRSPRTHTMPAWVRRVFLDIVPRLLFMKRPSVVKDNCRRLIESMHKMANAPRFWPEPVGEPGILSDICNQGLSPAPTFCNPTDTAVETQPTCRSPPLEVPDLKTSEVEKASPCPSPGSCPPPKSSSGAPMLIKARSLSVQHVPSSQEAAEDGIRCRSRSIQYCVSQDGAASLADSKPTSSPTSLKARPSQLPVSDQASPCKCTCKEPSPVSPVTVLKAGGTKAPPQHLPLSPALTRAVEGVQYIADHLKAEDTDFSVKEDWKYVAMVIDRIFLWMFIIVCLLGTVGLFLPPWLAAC
- Sequence (P12390 25-500): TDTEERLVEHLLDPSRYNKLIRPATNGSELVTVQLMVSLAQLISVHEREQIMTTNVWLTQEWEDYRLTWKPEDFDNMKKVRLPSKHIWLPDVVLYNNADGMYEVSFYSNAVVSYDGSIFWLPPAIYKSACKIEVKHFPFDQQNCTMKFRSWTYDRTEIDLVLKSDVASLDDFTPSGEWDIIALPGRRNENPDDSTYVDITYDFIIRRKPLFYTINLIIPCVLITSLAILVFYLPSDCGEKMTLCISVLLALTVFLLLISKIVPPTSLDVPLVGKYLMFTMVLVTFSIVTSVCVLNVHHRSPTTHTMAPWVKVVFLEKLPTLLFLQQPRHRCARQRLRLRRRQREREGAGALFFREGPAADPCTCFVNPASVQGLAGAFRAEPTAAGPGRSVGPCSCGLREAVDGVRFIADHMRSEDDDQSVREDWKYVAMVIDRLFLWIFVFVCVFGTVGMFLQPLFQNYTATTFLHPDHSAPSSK
- run-description: ^3 H-Nicotine binding/displacement, rat cerebral membranes
- condition: ^3 H-nicotine 1.9 nM, rat cerebral membranes; read-out: IC50, Nicotine
readout-label: pIC50
# pIC50 is unitless: minus log10 of the molar concentration; print number only

# compound, reported-measurement
measured = [
    ("CN(C)CC#Cc1cncc(C2CCCN2C)c1 (centres unmarked)", 7.60),
    ("COCC#Cc1cncc(C2CCCN2C)c1 (centres unmarked)", 8.59),
    ("Cc1ccc(-c2cncc(C3CCCN3C)c2)cc1.O=C(O)/C=C/C(=O)O (centres unmarked) [R^5 = 4-methylphenyl, fumarate]", 7.51),
    ("CN1CCCC1c1cncc(C#CCCO)c1 (centres unmarked) [R^5 = 5-(1-hydroxy-3-butynyl)]", 8.22),
    ("COc1ccc(-c2cncc(C3CCCN3C)c2)cc1.O=C(O)/C=C/C(=O)O (centres unmarked) [R^5 = 4-methyoxyphenyl, fumarate]", 7.74),
]

[Q] Look up pIC50 for this compound: COc1ccc(-c2cncc(C3CCCN3C)c2)cc1F.O=C(O)/C=C/C(=O)O (centres unmarked) [R^5 = 3-fluoro-4-methoxyphenyl, fumarate]
[A] 7.57

[Q] Requested field: pIC50. Item: Fc1ccc(-c2cncc(C3CCCCN3)c2)cc1 (centres unmarked) [fumarate]
[A] 6.31
